- subject of test: hS1P1R (hEdg1) (Homo sapiens, UniProt P21453)
- test method notes: hS1P1R GTPγS Binding Assay (Assay 3a)
Reported values of EC50 for individual entries

Lookup: Give the measured EC50 of O=C(O)CCc1c(Cl)cc(-c2noc(-c3cn4cc(C(F)(F)F)cc(Cl)c4n3)n2)cc1Cl [Entry 21] .
Found: 500 to 1000 nM

Lookup: How about this compound: C[C@H](CO)Oc1cc(Cl)c(-c2noc(-c3cn4cc(C(F)(F)F)cc(Cl)c4n3)n2)cc1F [Example 93]
Found: ≤ 100 nM

Lookup: Please give the result for O=C(O)CCc1cc(Cl)c(-c2nc(-c3cn4cc(I)cc(Cl)c4n3)no2)cc1F [Example 240] too.
Found: 500 to 1000 nM

Lookup: Please give the result for OC[C@H](O)COc1cc(Cl)c(-c2noc(-c3cn4cc(C(F)(F)F)cc(Br)c4n3)n2)cc1Cl [Entry 33] too.
Found: ≤ 100 nM

Continuing:
Lookup: I have this compound here, OCC(O)COc1cc(Cl)c(-c2noc(-c3cn4cc(I)cc(Cl)c4n3)n2)cc1Cl (stereo not shown) [Example 204] , and I need its recorded EC50.
Found: 100 to 500 nM

Lookup: Now consider O=C(O)CCc1cc(Cl)c(-c2noc(-c3cn4cc(C(F)(F)F)cc(Cl)c4n3)n2)cc1Cl [Example 242] and answer again.
Found: ≤ 100 nM

* * *

- subject of test: S1P1 (Homo sapiens, UniProt P21453)
- test method notes: CNG cAMP Assay (Assay 1)
- Format: cell-based
- Parameters: host or cells: HEK293 cells expressing the CNG channel
- test context: relative EC50 was measured (footnote 1), read-out: Assay 1 Relative EC50
- Sequence (P21453 whole entry): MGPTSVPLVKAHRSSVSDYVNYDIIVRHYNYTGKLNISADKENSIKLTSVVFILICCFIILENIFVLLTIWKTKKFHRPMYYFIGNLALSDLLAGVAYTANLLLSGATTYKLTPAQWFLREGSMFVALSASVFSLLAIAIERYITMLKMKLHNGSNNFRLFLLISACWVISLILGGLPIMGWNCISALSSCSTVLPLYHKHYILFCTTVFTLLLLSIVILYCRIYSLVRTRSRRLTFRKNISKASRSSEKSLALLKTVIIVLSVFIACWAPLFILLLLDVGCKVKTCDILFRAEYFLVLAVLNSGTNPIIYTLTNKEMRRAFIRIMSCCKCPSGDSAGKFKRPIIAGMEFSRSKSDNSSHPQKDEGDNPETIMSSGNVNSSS
pEC50: −log10 of the molar value.
result type: pEC50

Known pEC50 results, listed for orientation:
Lookup: Returns the measured pEC50 for the input molecule. Input: O=C(O)CCc1cc(Cl)c(-c2noc(-c3cn4cc(F)cc(F)c4n3)n2)cc1F
Found: 5.30 to 6.00

Lookup: Try the molecule O=C(O)CCc1ccc(Nc2nnc(-c3cn4cc(C(F)(F)F)cc(Cl)c4n3)o2)c(Cl)c1
Found: 5.00 to 5.30

Lookup: What do you have for O=C(O)C1CC1c1ccc(-c2noc(-c3cn4cc(C(F)(F)F)cc(Cl)c4n3)n2)cc1 (stereo not drawn) ?
Found: 6.00 to 6.30

Continuing:
Lookup: Find the recorded pEC50 belonging to COc1cc2nc(-c3nc(-c4cc(F)c(CCC(=O)O)cc4Cl)no3)cn2cc1Cl and report it.
Found: 5.00 to 5.30

Lookup: Now the same for CS(=O)(=O)Nc1cc(Cl)c2nc(-c3nc(-c4cc(F)c(CCC(=O)O)cc4Cl)no3)cn2c1
Found: 5.30 to 6.00

Lookup: # repeat for O=C(O)CCc1cc(Cl)c(-c2noc(-c3cn4ccccc4n3)n2)cc1F
Found: 5.00 to 5.30

* * *

- subject of test: S1P1 (Homo sapiens, UniProt P21453)
- test method notes: CNG cAMP Assay (Assay 1)
- Format: cell-based
- Design: host or cells: HEK293 cells expressing the CNG channel
- test context: read-out: Assay 1 EC50
molecules and their reported EC50

Example entries and their recorded answers appear below.
Lookup: Look up EC50 for this molecule: CS(=O)(=O)Nc1ccc(-c2nnc(-c3cn4cc(C(F)(F)F)cc(Cl)c4n3)s2)c(Cl)c1
Found: ≤ 100 nM

Lookup: Same question for O=C(O)CCc1cc(Cl)c(-c2noc(-c3cn4cc(C(F)(F)F)cc(Br)c4n3)n2)cc1Cl please.
Found: ≤ 100 nM

Lookup: Cool, now CC(Cc1cc(Cl)c(-c2noc(-c3cn4cc(C(F)(F)F)cc(Cl)c4n3)n2)cc1F)C(=O)O (centres unmarked)
Found: ≤ 100 nM

Lookup: Another molecule to check: O=C(O)CCc1cc(Cl)c(-c2nnc(-c3cn4cc(C(F)(F)F)cc(Cl)c4n3)o2)cc1F
Found: ≤ 100 nM

Lookup: Then what about the molecule Cc1cc(-c2noc(-c3cn4cc(C(F)(F)F)cc(Cl)c4n3)n2)ccc1C1CC1C(=O)O (centres unmarked) ?
Found: 100 to 500 nM

Lookup: Same question, FC(F)(F)c1cc(Cl)c2nc(-c3noc(-c4ccccc4Cl)n3)cn2c1 this time
Found: ≤ 100 nM

New cases:
Lookup: Requested field: EC50. Item: Fc1cccc(-c2noc(-c3cn4cc(C(F)(F)F)cc(Cl)c4n3)n2)c1Cl
Found: 100 to 500 nM

Lookup: Follow-up item: C[C@@H](CO)Oc1cc(Cl)c(-c2noc(-c3cn4cc(C(F)(F)F)cc(Cl)c4n3)n2)cc1F
Found: ≤ 100 nM

* * *

- subject of test: S1P1 (Homo sapiens, UniProt P21453)
- test method notes: Tango β-arrestin Recruitment Assay in HEK293 cells (Assay 2a)
- Assay type: cell-based
- Design: linker with TEV protease (N1a) cleavage site (C); host or cells: HEK293, transiently transfected
- test context: Tango β-arrestin Recruitment Assay, read-out: Assay 2a EC50
- Sequence (P21453 whole entry): as above
- Sequence (P32121 whole entry partner): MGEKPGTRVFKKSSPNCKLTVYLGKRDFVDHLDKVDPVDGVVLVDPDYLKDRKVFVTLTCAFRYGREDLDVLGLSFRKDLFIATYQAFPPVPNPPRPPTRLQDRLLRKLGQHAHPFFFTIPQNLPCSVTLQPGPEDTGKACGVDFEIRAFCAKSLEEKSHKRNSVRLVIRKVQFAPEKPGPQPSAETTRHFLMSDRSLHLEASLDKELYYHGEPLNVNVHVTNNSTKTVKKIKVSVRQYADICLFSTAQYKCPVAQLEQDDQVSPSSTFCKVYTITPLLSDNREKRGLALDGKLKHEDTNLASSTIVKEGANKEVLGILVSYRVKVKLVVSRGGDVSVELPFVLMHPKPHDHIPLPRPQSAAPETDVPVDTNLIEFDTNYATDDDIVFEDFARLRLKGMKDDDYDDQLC
pEC50: −log10 of the molar value.
result type: pEC50

Examples with answers:
Lookup: Field request: pEC50 | item: OCCOc1cc(Cl)c(-c2noc(-c3cn4cc(C(F)(F)F)cc(Br)c4n3)n2)cc1Cl
Found: ≥ 7.00

Lookup: What would you report for CS(=O)(=O)Nc1ccc(-c2nnc(-c3cn4cc(C(F)(F)F)cc(Cl)c4n3)s2)c(Cl)c1 ?
Found: ≥ 7.00

Lookup: Entry N#Cc1cc(Br)c2nc(-c3nc(-c4cc(F)c(CCC(=O)O)cc4Cl)no3)cn2c1 please
Found: 6.30 to 7.00

Continue with the compound presented below.
Lookup: Param item = O=C(O)/C=C/c1ccc(-c2noc(-c3cn4cc(C(F)(F)F)cc(Cl)c4n3)n2)c(Cl)c1 ; retrieve measured pEC50.
Found: 6.30 to 7.00

* * *

- subject of test: S1P1 (Homo sapiens)
- test method notes: DELFIA GTP-Eu Binding Assay (Assay 3b)
- Format: biochemical
- Parameters: purchased Lonza; host or cells: CHO cell membranes
- test context: read-out: Assay 3b EC50
pEC50: −log10 of the molar value.
result type: pEC50

Lookup: Which value of pEC50 has been reported for O=C(O)C1CN(Cc2ccc(-c3noc(-c4cn5cc(C(F)(F)F)cc(Br)c5n4)n3)c(Cl)c2)C1 in the records?
Found: 5.30 to 6.00

Lookup: Also CC(CC(=O)O)c1ccc(-c2noc(-c3cn4cc(C(F)(F)F)cc(Cl)c4n3)n2)c(Cl)c1 (centres unmarked) , if possible.
Found: 5.30 to 6.00

Lookup: Quick one: Cc1cc(CCC(=O)O)c(Cl)cc1-c1noc(-c2cn3cc(C(F)(F)F)cc(Cl)c3n2)n1
Found: ≥ 7.00

Lookup: Proceed to CS(=O)(=O)Nc1ccc(-c2nnc(-c3cn4cc(C(F)(F)F)cc(Cl)c4n3)s2)c(Cl)c1
Found: 6.30 to 7.00

Lookup: One more compound: CC(CO)Oc1ccc(-c2noc(-c3cn4cc(C(F)(F)F)cc(Cl)c4n3)n2)c(Cl)c1 (centres unmarked)
Found: 6.30 to 7.00

Lookup: // same read-out, input: O=C(O)CCc1cc(Cl)c(-c2nnc(-c3cn4cc(C(F)(F)F)cc(Cl)c4n3)s2)cc1F
Found: ≥ 7.00

Lookup: // same read-out, input: O=C(O)/C=C/c1cc(Cl)c(-c2noc(-c3cn4cc(C(F)(F)F)cc(Cl)c4n3)n2)cc1F
Found: 6.30 to 7.00

Lookup: Please do the same for CC(C)Oc1cc(Cl)c2nc(-c3nc(-c4cc(F)c(CCC(=O)O)cc4Cl)no3)cn2c1 as well.
Found: ≥ 7.00

Lookup: Query Cc1cc(C2CC2C(=O)O)c(F)cc1-c1noc(-c2cn3cc(C(F)(F)F)cc(Cl)c3n2)n1 (centres unmarked) next
Found: 6.30 to 7.00

Lookup: Now try NCCOc1ccc(-c2nnc(-c3cn4cc(C(F)(F)F)cc(Cl)c4n3)s2)c(Cl)c1 .
Found: 6.00 to 6.30

Further cases:
Lookup: Find the recorded pEC50 belonging to NCCOc1ccc(-c2noc(-c3cn4cc(C(F)(F)F)cc(Cl)c4n3)n2)c(Cl)c1 and report it.
Found: 6.30 to 7.00

* * *

- subject of test: hS1P1R (hEdg1) (Homo sapiens)
- test method notes: hS1P1R GTPγS Binding Assay (Assay 3a)
- Description: The hS1P1R GTPγS binding assay was carried out at room temperature in 96 well non-binding surface assay plates. […] The radioactivity of the bound GTPγS was counted by reading the assay plate using a MicroBeta. Assay 1 is the CNG cAMP Assay as described in Biological Example 1. […] EC50's were measured unless otherwise noted. […]
pEC50: −log10 of the molar value.
result type: pEC50

Sample records with pEC50:
Lookup: # get_value(readout='pEC50', item= OCCCc1cc(Cl)c(-c2noc(-c3cn4cc(C(F)(F)F)cc(Cl)c4n3)n2)cc1Cl )
Found: ≥ 7.00

Lookup: Do the same for O=C(O)CCc1c(Cl)cc(-c2nnc(-c3cn4cc(C(F)(F)F)cc(Cl)c4n3)s2)cc1Cl please
Found: 5.30 to 6.00

Lookup: Can you handle Cc1c(I)ccc2nc(-c3nc(-c4cc(F)c(CCC(=O)O)cc4Cl)no3)cn12 next?
Found: 5.30 to 6.00

Further cases:
Lookup: Would you kindly share the measured pEC50 for O=C(O)CCc1ccc(-c2noc(-c3cn4cc(C(F)(F)F)cc(Cl)c4n3)n2)cc1Cl ?
Found: 5.30 to 6.00

Lookup: Now consider O=C(O)CCc1cc(Cl)c(-c2nnc(-c3cn4cc(C(F)(F)F)cc(Cl)c4n3)s2)cc1F .
Found: ≥ 7.00

Lookup: Let us now turn to OCC(O)COc1cc(Cl)c(-c2noc(-c3cn4cc(C(F)(F)F)cc(Cl)c4n3)n2)cc1Cl (stereo not shown)
Found: ≥ 7.00

Lookup: Next up: O=C(O)CCc1cc(Cl)c(-c2noc(-c3cn4cc(C(F)(F)F)cc(Br)c4n3)n2)cc1Cl
Found: ≥ 7.00

Lookup: Also, C[C@H](O)COc1cc(Cl)c(-c2noc(-c3cn4cc(C(F)(F)F)cc(Cl)c4n3)n2)cc1Cl please.
Found: ≥ 7.00

Lookup: Likewise for Cc1cc(CCC(=O)O)c(Cl)cc1-c1noc(-c2cn3cc(C(F)(F)F)cc(Br)c3n2)n1 ?
Found: ≥ 7.00

Lookup: Another compound: Cc1cc(CCC(=O)O)c(Cl)cc1-c1noc(-c2cn3cc(C(F)(F)F)cc(Cl)c3n2)n1
Found: ≥ 7.00

Lookup: Entry OC[C@H](O)COc1cc(Cl)c(-c2nnc(-c3cn4cc(C(F)(F)F)cc(Cl)c4n3)s2)cc1Cl please
Found: 6.00 to 6.30

Lookup: Request: OC[C@@H](O)COc1cc(Cl)c(-c2noc(-c3cn4cc(C(F)(F)F)cc(Cl)c4n3)n2)cc1Cl
Found: ≥ 7.00

Lookup: OCC(O)COc1ccc(-c2noc(-c3cn4cc(C(F)(F)F)cc(Cl)c4n3)n2)c(Cl)c1 (stereo not shown) ?
Found: 6.00 to 6.30
